assay details: Half life period was determined in rat
Format: ADME, organism-based
condition details: in vivo
experimental readout: half-life (h)

Clc1ccccc1CCN1CCN(c2[nH]nc3c2CCc2ccccc2-3)CC1	1

[A] Cc1c(C2CCN(CCc3ccccc3)CC2)noc1-c1ccc(Cl)cc1
[B] Cc1c(-c2ccccc2)[nH]c(=O)n1C1CCN(Cc2cccc(C#N)c2)CC1
Of A and B , which carries the smaller reported half-life figure? Refer to your chosen item by its label in the answer. B
(B: 1.1 h, A: 2 h)

----------
assay details: Binding affinity at sodium channels
experimental readout: IC50

Return reported IC50. Input compound: c1ccc(N2CCN(Cc3c[nH]c4ccccc34)CC2)cc1 > 10 µM

----------
The reader will find pKi measurements below, all made with D(4) dopamine receptor (Homo sapiens).
Sequence (P21917 whole entry): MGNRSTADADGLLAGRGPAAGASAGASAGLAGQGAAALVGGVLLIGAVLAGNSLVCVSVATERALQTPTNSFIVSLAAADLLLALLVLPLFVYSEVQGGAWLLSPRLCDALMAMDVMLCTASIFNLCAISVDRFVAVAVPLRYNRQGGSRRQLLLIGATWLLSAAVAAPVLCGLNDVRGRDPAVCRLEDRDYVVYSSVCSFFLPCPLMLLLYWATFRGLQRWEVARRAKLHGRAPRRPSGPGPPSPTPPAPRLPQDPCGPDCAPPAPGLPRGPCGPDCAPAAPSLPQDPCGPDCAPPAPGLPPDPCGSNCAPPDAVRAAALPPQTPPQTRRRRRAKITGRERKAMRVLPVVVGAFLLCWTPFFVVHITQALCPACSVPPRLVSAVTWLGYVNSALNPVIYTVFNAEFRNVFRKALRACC
pKi: −log10 of the molar value.
experimental readout: pKi

[A] O=S1(=O)c2cccc3cccc(c23)N1CCCN1CCN(c2ccc(F)cc2)CC1 [FANANSERIN]
[B] NS(=O)(=O)c1ccc(N2CCN(CC[C@@H]3OCCc4ccccc43)CC2)cc1 [SONEPIPRAZOLE]
Select the item whose pKi value is smaller, choosing between A and B . Which one? Tell me its label. B
(B: 8.17, A: 8.54)

----------
assay details: Brain/Plasma AUC ratio was determined after oral administration of 50 mg/kg
Assay type: ADME, organism-based
Set-up: dose 50 mg/kg, route oral
condition details: brain and plasma
experimental readout: Kp

Identify Kp associated with the compound COc1cccc([C@H](O)C2CCN(CCc3ccc(F)cc3)CC2)c1O < 0.13

----------
assay details: Cmax was determined in rat after oral administration of 3 mg/kg
Format: ADME, organism-based
Set-up: dose 3 mg/kg, route oral
condition details: in vivo
experimental readout: Cmax (ng/mL)
Answer in ng/mL, number only, no unit symbol.

State its Cmax for this compound: c1ccc(N2CCN(Cc3c[nH]c4ncccc34)CC2)cc1 18

----------
Sequence of the target: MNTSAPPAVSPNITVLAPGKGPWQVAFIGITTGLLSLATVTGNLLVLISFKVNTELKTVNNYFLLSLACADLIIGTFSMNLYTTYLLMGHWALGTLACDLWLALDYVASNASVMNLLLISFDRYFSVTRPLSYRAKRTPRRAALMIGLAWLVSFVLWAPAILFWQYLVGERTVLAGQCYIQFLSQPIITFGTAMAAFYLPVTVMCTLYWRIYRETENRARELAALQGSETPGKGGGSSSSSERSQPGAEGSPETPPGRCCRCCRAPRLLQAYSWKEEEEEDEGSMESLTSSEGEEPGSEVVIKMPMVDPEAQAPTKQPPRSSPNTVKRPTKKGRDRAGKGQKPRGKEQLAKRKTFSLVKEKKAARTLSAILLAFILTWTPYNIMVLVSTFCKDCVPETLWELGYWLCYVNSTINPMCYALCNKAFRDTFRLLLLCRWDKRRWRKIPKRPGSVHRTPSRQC
experimental readout: Ki

Assign Ki to the following record: O=C1Cc2cc(CCN3CCN(c4nsc5ccccc45)CC3)c(Cl)cc2N1 > 10 µM

----------
Listed here: molecules with reported Ki for 5-hydroxytryptamine receptor 2A (Homo sapiens).
experimental readout: Ki (nM)

OC(c1ccccc1)C1CCN(CCc2ccccc2)CC1 (stereo not drawn)	2.5

[1] OC(c1ccc(F)cc1)C1CCN(CCCCc2ccccc2)CC1 (stereo not drawn)
[2] O=C(c1ccc(F)cc1)C1CCN(CCCCc2ccccc2)CC1
Field: entry with larger Ki (options 1 / 2 ). Which one? Tell me its label. 1
